Data origin: patent US20250214960A1

Molecular target: GSPT1 protein (Homo sapiens, UniProt P15170+Q96SW2)
Construct: endogenous in cells; host or cells: Jeko-1
Sequence (P15170 whole entry): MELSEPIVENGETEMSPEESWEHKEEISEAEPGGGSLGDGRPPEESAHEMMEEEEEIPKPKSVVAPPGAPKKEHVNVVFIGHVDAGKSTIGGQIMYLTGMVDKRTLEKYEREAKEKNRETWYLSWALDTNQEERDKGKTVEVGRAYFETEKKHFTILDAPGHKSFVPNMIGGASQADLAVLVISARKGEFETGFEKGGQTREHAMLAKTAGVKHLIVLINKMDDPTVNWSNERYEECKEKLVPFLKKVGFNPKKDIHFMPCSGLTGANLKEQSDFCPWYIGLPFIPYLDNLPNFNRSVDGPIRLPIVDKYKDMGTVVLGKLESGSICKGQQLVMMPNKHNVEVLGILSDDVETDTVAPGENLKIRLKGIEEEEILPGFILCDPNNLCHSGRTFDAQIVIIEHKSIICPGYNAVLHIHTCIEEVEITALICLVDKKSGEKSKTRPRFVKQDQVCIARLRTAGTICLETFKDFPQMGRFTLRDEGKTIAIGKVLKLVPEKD
Sequence (Q96SW2 whole entry): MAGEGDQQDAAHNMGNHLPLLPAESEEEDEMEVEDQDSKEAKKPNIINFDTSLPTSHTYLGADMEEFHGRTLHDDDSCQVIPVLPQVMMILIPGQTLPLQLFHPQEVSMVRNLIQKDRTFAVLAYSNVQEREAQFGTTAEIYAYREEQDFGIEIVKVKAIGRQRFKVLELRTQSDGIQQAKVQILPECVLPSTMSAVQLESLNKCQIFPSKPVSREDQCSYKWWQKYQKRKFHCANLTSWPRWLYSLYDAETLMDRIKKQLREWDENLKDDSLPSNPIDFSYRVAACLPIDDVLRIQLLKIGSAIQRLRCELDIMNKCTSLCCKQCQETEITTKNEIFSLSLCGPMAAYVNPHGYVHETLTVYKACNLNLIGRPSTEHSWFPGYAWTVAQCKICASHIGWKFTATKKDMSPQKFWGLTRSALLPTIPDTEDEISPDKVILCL
Sequence (Q16531 whole entry partner): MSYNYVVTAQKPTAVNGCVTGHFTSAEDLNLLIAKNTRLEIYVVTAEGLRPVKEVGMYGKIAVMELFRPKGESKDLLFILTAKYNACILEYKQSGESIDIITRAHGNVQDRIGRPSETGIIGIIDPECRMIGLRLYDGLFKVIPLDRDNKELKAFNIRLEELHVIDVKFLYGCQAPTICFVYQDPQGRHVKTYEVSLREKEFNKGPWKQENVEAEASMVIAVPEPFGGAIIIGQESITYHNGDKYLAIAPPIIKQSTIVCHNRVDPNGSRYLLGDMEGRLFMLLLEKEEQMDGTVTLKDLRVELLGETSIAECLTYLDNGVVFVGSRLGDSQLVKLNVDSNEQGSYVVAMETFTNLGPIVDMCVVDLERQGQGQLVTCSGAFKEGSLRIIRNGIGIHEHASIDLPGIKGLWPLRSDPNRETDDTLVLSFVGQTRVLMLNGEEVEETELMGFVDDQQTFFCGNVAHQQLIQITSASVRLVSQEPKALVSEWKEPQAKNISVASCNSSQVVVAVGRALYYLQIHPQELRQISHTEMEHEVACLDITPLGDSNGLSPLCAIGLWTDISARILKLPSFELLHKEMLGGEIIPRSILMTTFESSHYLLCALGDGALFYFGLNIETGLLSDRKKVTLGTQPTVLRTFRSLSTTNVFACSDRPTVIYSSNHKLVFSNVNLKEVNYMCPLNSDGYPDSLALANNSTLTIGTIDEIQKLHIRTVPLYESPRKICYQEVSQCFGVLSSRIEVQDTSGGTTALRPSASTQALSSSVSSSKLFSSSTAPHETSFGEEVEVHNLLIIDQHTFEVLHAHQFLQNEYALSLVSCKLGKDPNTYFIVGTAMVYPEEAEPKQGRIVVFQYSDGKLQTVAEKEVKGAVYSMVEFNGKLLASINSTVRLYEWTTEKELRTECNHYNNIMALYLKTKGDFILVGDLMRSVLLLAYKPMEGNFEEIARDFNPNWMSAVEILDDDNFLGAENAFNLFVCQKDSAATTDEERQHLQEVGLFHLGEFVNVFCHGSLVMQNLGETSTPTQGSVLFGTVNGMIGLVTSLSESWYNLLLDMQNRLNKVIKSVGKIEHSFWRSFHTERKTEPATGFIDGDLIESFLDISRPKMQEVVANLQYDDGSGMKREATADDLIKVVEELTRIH
Assay: Western blot detection of degradation activity of GSPT1 protein in Jeko-1 cells
Assay type: cell-based
Settings: JeKo-1, 24 h, 10 μM, Jeko-1 cells, 24 hours; read-out: GSPT1 degradation rate (%)
assay metric: inhibition at 10 µM (%)

>  <compound>
CC(C)C[C@H](NC(=O)OC(C)(C)C)C(=O)NCc1ccc2c(c1)CN(C1CCC(=O)NC1=O)C2=O (stereo partly shown)

>  <assay metric>
inhibition at 10 µM

>  <assay value>
82.7

$$$$
>  <compound>
CC(C)(C)OC(=O)N[C@@H](Cc1ccccc1)C(=O)NCc1ccc2c(c1)CN(C1CCC(=O)NC1=O)C2=O (stereo partly shown)

>  <assay metric>
inhibition at 10 µM

>  <assay value>
99.5

$$$$
>  <compound>
CC(C)(C)OC(=O)NCC(C(=O)NCc1ccc2c(c1)CN(C1CCC(=O)NC1=O)C2=O)C1CCCCC1 (stereo not shown)

>  <assay metric>
inhibition at 10 µM

>  <assay value>
93.9

$$$$
>  <compound>
CC(C)(C)OC(=O)NCC(C(=O)NCc1ccc2c(c1)CN(C1CCC(=O)NC1=O)C2=O)c1ccccc1 (stereo not shown)

>  <assay metric>
inhibition at 10 µM

>  <assay value>
97

$$$$
>  <compound>
O=C1CCC(N2Cc3cc(CNC(=O)[C@@H](CNC(=O)C4CCCC4)c4ccccc4)ccc3C2=O)C(=O)N1 (stereo partly shown)

>  <assay metric>
inhibition at 10 µM

>  <assay value>
70

$$$$
>  <compound>
CC(C)(C)OC(=O)NC(C(=O)NCc1ccc2c(c1)CN(C1CCC(=O)NC1=O)C2=O)c1ccccc1F (stereo not shown)

>  <assay metric>
inhibition at 10 µM

>  <assay value>
100

$$$$
>  <compound>
CN(C(=O)OC(C)(C)C)C(C(=O)NCc1ccc2c(c1)CN(C1CCC(=O)NC1=O)C2=O)c1ccc(Cl)c(Cl)c1 (stereo not shown)

>  <assay metric>
inhibition at 10 µM

>  <assay value>
84.6

$$$$
>  <compound>
CN(C(=O)CC1CCCC1)[C@H](C(=O)NCc1ccc2c(c1)CN(C1CCC(=O)NC1=O)C2=O)c1ccccc1 (stereo partly shown)

>  <assay metric>
inhibition at 10 µM

>  <assay value>
96.9

$$$$
>  <compound>
O=C1CCC(N2Cc3cc(CNC(=O)C(CNC(=O)C4CCCC4)C4CCCCC4)ccc3C2=O)C(=O)N1 (stereo not shown)

>  <assay metric>
inhibition at 10 µM

>  <assay value>
93.7

$$$$
>  <compound>
CC(C)(C)OC(=O)N[C@H](Cc1ccccc1)C(=O)NCc1ccc2c(c1)CN(C1CCC(=O)NC1=O)C2=O (stereo partly shown)

>  <assay metric>
inhibition at 10 µM

>  <assay value>
96

$$$$
>  <compound>
CC(C)(C)OC(=O)NC(CC(=O)NCc1ccc2c(c1)CN(C1CCC(=O)NC1=O)C2=O)C1CCCC1 (stereo not shown)

>  <assay metric>
inhibition at 10 µM

>  <assay value>
99

$$$$
>  <compound>
O=C1CCC(N2Cc3cc(CNC(=O)[C@@H](NC(=O)NCc4ccccc4)c4ccccc4)ccc3C2=O)C(=O)N1 (stereo partly shown)

>  <assay metric>
inhibition at 10 µM

>  <assay value>
85

$$$$
>  <compound>
CC(C)(C)OC(=O)NC[C@@H](Cc1ccccc1)C(=O)NCc1ccc2c(c1)CN(C1CCC(=O)NC1=O)C2=O (stereo partly shown)

>  <assay metric>
inhibition at 10 µM

>  <assay value>
88

$$$$
>  <compound>
CC(C)(C)OC(=O)N[C@H](C(=O)NCc1ccc2c(c1)CN(C1CCC(=O)NC1=O)C2=O)c1ccccc1Cl (stereo partly shown)

>  <assay metric>
inhibition at 10 µM

>  <assay value>
95.6

$$$$
>  <compound>
CC(C)(C)OC(=O)N[C@H](C(=O)NCc1ccc2c(c1)CN(C1CCC(=O)NC1=O)C2=O)C1CCCC1 (stereo partly shown)

>  <assay metric>
inhibition at 10 µM

>  <assay value>
98.1

$$$$
>  <compound>
CC(C)(C)OC(=O)N[C@@H](CC(N)=O)C(=O)NCc1ccc2c(c1)CN(C1CCC(=O)NC1=O)C2=O (stereo partly shown)

>  <assay metric>
inhibition at 10 µM

>  <assay value>
87.9

$$$$
>  <compound>
O=C1CCC(N2Cc3cc(CNC(=O)[C@H](CC4CCCCC4)NC(=O)C4CCCC4)ccc3C2=O)C(=O)N1 (stereo partly shown)

>  <assay metric>
inhibition at 10 µM

>  <assay value>
87.1

$$$$
>  <compound>
O=C1CCC(N2Cc3cc(CNC(=O)C(NC(=O)CC4CCCC4)c4ccccc4)ccc3C2=O)C(=O)N1 (stereo not shown)

>  <assay metric>
inhibition at 10 µM

>  <assay value>
97

$$$$
>  <compound>
O=C1CCC(N2Cc3cc(CNC(=O)[C@H](CC4CCCCC4)NC(=O)CC4CCCC4)ccc3C2=O)C(=O)N1 (stereo partly shown)

>  <assay metric>
inhibition at 10 µM

>  <assay value>
97

$$$$
>  <compound>
CC(C)(C)C(=O)NCC(C(=O)NCc1ccc2c(c1)CN(C1CCC(=O)NC1=O)C2=O)c1ccccc1 (stereo not shown)

>  <assay metric>
inhibition at 10 µM

>  <assay value>
93

$$$$
>  <compound>
Cc1ccc([C@H](NC(=O)OC(C)(C)C)C(=O)NCc2ccc3c(c2)CN(C2CCC(=O)NC2=O)C3=O)cc1 (stereo partly shown)

>  <assay metric>
inhibition at 10 µM

>  <assay value>
93

$$$$
>  <compound>
CC(C)(C)OC(=O)N[C@H](C(=O)NCc1ccc2c(c1)CN(C1CCC(=O)NC1=O)C2=O)c1ccc(F)cc1 (stereo partly shown)

>  <assay metric>
inhibition at 10 µM

>  <assay value>
97

$$$$
>  <compound>
O=C1CCC(N2Cc3cc(CNC(=O)C(CNC(=O)C4CCCC4)c4ccccc4)ccc3C2=O)C(=O)N1 (stereo not shown)

>  <assay metric>
inhibition at 10 µM

>  <assay value>
91.2

$$$$
>  <compound>
CC(C)(C)OC(=O)N[C@H](C(=O)NCc1ccc2c(c1)CN(C1CCC(=O)NC1=O)C2=O)C1CCCCC1 (stereo partly shown)

>  <assay metric>
inhibition at 10 µM

>  <assay value>
84.1

$$$$
>  <compound>
CC(C)(C)OC(=O)N[C@H](Cc1ccccc1Cl)C(=O)NCc1ccc2c(c1)CN(C1CCC(=O)NC1=O)C2=O (stereo partly shown)

>  <assay metric>
inhibition at 10 µM

>  <assay value>
95.5

$$$$
>  <compound>
CC(C)(C)OC(=O)O[C@H](C(=O)NCc1ccc2c(c1)CN(C1CCC(=O)NC1=O)C2=O)c1ccccc1 (stereo partly shown)

>  <assay metric>
inhibition at 10 µM

>  <assay value>
74.8

$$$$
>  <compound>
CC(C)CC(CNC(=O)OC(C)(C)C)C(=O)NCc1ccc2c(c1)CN(C1CCC(=O)NC1=O)C2=O (stereo not shown)

>  <assay metric>
inhibition at 10 µM

>  <assay value>
80

$$$$
>  <compound>
CCOC(=O)N[C@H](C(=O)NCc1ccc2c(c1)CN(C1CCC(=O)NC1=O)C2=O)c1ccccc1 (stereo partly shown)

>  <assay metric>
inhibition at 10 µM

>  <assay value>
88

$$$$

---

// inhibition at 0.01 µM lookup, one value per entry
Target: GSPT1 protein (Homo sapiens, UniProt P15170+Q96SW2)
Construct: endogenous in cells; host or cells: Jeko-1
Experiment: Western blot detection of degradation activity of GSPT1 protein in Jeko-1 cells
Type: cell-based
Conditions: JeKo-1, 24 h, read-out: GSPT1 degradation rate (%)
Answer with a number only, understood to be in %.

Here's what some known entries look like.
>  <molecule>
O=C1CCC(N2Cc3cc(CNC(=O)[C@@H](NC(=O)OC4CCOCC4)c4ccccc4)ccc3C2=O)C(=O)N1 (stereo partly shown)

>  <assay value>
28

$$$$
>  <molecule>
CC(C)[C@@H]1CC[C@@H](C)C[C@H]1OC(=O)N[C@H](C(=O)NCc1ccc2c(c1)CN(C1CCC(=O)NC1=O)C2=O)c1ccccc1 (stereo partly shown) [Compound 4-175b]

>  <assay value>
98

$$$$
>  <molecule>
O=C1CCC(N2Cc3cc(CNC(=O)[C@@H](NC(=O)OC4CCCCC4)c4ccccc4)ccc3C2=O)C(=O)N1 (stereo partly shown)

>  <assay value>
95

$$$$

# input for lookup
Given item O=C1CCC(N2Cc3cc(CNC(=O)[C@@H](NC(=O)OC4CCOC4)c4ccccc4)ccc3C2=O)C(=O)N1 (stereo partly shown) , the value recorded as its inhibition at 0.01 µM is 10

---

Target: GSPT1 protein (Homo sapiens, UniProt P15170+Q96SW2)
Construct: endogenous in cells; host or cells: Jeko-1
Test: Western blot detection of degradation activity of GSPT1 protein in Jeko-1 cells
Format: cell-based
Conditions: JeKo-1, 24 h, 100 nM, Jeko-1 cells, 24 hours; read-out: GSPT1 degradation rate (%)
assay metric: inhibition at 0.1 µM (%)

Here's what some known entries look like.
>  <compound>
O=C1CCC(N2Cc3cc(CNC(=O)C(NC(=O)C4CCCC4)c4ccccc4)ccc3C2=O)C(=O)N1 (centres unmarked)

>  <inhibition at 0.1 µM, %>
59

$$$$
>  <compound>
CC(C)(C)OC(=O)N[C@H](C(=O)NCc1ccc2c(c1)CN(C1CCC(=O)NC1=O)C2=O)c1ccc(F)cc1 (some centres unmarked)

>  <inhibition at 0.1 µM, %>
82

$$$$
>  <compound>
CC(C)(C)OC(=O)N[C@H](C(=O)NCc1ccc2c(c1)CN(C1CCC(=O)NC1=O)C2=O)c1ccc(Br)cc1 (some centres unmarked)

>  <inhibition at 0.1 µM, %>
94

$$$$
>  <compound>
CN(C(=O)OC(C)(C)C)C(C(=O)NCc1ccc2c(c1)CN(C1CCC(=O)NC1=O)C2=O)c1ccc(Cl)c(Cl)c1 (centres unmarked)

>  <inhibition at 0.1 µM, %>
65.2

$$$$
>  <compound>
CC(C)(C)OC(=O)NC(C(=O)NCc1ccc2c(c1)CN(C1CCC(=O)NC1=O)C2=O)c1ccc(Cl)c(Cl)c1 (centres unmarked)

>  <inhibition at 0.1 µM, %>
77

$$$$

A: CN(C(=O)OC(C)(C)C)[C@H](C(=O)NCc1ccc2c(c1)CN(C1CCC(=O)NC1=O)C2=O)c1ccccc1 (some centres unmarked)
B: COC(C(=O)N[C@H](C(=O)NCc1ccc2c(c1)CN(C1CCC(=O)NC1=O)C2=O)c1ccccc1)c1ccccc1 (some centres unmarked)
Req: Short answer wanted: higher inhibition at 0.1 µM, A or B ? Bench note: the answer is the label of the chosen record.
Resp: A

I: CC(C)(C)OC(=O)N[C@H](C(=O)NCc1ccc2c(c1)CN(C1CCC(=O)NC1=O)C2=O)c1ccccc1Cl (some centres unmarked)
II: Cc1ccc(S(=O)(=O)N[C@H](C(=O)NCc2ccc3c(c2)CN(C2CCC(=O)NC2=O)C3=O)c2ccccc2)cc1 (some centres unmarked)
Req: Short answer wanted: higher inhibition at 0.1 µM, I or II ? Bench note: the answer is the label of the chosen record.
Resp: I
(I: 94.2%, II: 35%)

I: CC[C@H](C)[C@@H](CC(=O)NCc1ccc2c(c1)CN(C1CCC(=O)NC1=O)C2=O)NC(=O)OC(C)(C)C (some centres unmarked)
II: O=C1CCC(N2Cc3cc(CNC(=O)[C@@H](CNC(=O)C4CCCC4)c4ccc(Cl)cc4)ccc3C2=O)C(=O)N1 (some centres unmarked)
Req: Kindly compare I with II and tell me which has the lower inhibition at 0.1 µM figure. Bench note: the answer is the label of the chosen record.
Resp: II
